- Tested on: FGFR4;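 note: KINOMEscan kinase panel screen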
- test.settings: concentration: 1 μM,replicates: in singlicate; n = 1
A collection of compounds and their measured %Inh

Answered cases to consult:
- compound: "CC(=O)c1c(-c2ccncc2)[nH]c(-c2ccncc2)c1C"
  target.of.assay: "FGFR4"
  %Inh: "9%"
- compound: "Cc1ccc(C(=O)Nc2ccc(Oc3ccc4nc(NC(=O)C5CC5)cn4c3)c(F)c2)c(=O)n1-c1ccccc1"
  target.of.assay: "FGFR4"
  %Inh: "1%"
- compound: "O=c1[nH]cc(-c2ccc(O)cc2)c2sc(-c3ccncc3)cc12"
  target.of.assay: "FGFR4"
  %Inh: "13%"
- compound: "CC(C)c1nc(-c2cccc(NS(=O)(=O)c3ccccc3)c2)c(-c2ccnc(Nc3ccc4c(c3)CN(C)CC4)n2)s1"
  target.of.assay: "FGFR4"
  %Inh: "0%"
- compound: "CCn1c(-c2nonc2N)nc2cncc(Br)c21"
  target.of.assay: "FGFR4"
  %Inh: "2%"
- compound: "Cc1n[nH]c2cc(Nc3ccnc(Nc4cccc(CN5CCOCC5)c4)n3)ccc12"
  target.of.assay: "FGFR4"
  %Inh: "0%"

Prompt: Given the compound CCCC(=O)Nc1n[nH]c2ncccc12 , what is its reported %Inh?
Response: 0%

Prompt: Given the compound C[C@@H](Oc1cc(-n2cnc3cc(-c4cnn(C)c4)ccc32)sc1C(N)=O)c1ccccc1Cl , what is its reported %Inh?
Response: 38%

Prompt: Given the compound N#Cc1cccc(C(=O)NC2CCN(c3ccnc(Nc4ccc(F)cc4)n3)C2)c1 (stereo not drawn) , what is its reported %Inh?
Response: 1%

Prompt: Given the compound COC(=O)c1cccc(NC(=O)NC2CCN(c3ccnc(NCc4ccc(F)cc4)n3)CC2)c1 , what is its reported %Inh?
Response: 0%

Prompt: Given the compound COc1ccc(Nc2nccc(N3CCC(NC(=O)c4cccc(C#N)c4)C3)n2)cc1 (stereo not drawn) , what is its reported %Inh?
Response: 6%
